procedure details: melting temperature; fluorescence melt of hairpins on a sequencing array, two-state fit, raised by 9.35 °C to match UV melts
protocol conditions: sodium 0.088 M
// returns False unless Tm is strictly below 50 °C, in which case True

GCGGTACGAAAGTAACGC (((.(((....))).))); False
GCCAGGCGAAAGCTAGGC (((..((....))..))); False
GTGCAACGAAAGTTCAC (((.(((....)))))); True
GATCAGAGAACTGATC ((((((....)))))); True
GATCAAAAAGTTGATC ((((((....)))))); True
GATCTGGTAGCAGATC ((((((....)))))); False
GCACAGACGAAAGTCTGC (((..(((....)))))); True
GGCTCTGGAAACAGAGTC (.(((((....))))).); False
GATCAATACTTTGATC ((((((....)))))); True

---

procedure details: melting temperature; fluorescence melt of hairpins on a sequencing array, two-state fit, raised by 9.35 °C to match UV melts
protocol conditions: sodium 0.088 M
Cut-off 40 °C on Tm: below means Criterion met, at or above means Criterion not met.

GCTGTACGAAAGTAAAGC (((.(((....))).))); Criterion not met
GAGTTGGGAAACTAACTC (((((.(....).))))); Criterion not met
TACGAGAAATCGTA (((((....))))); Criterion met
GAGGACGGAAACGTTCTC (((.(((....))).))); Criterion not met
GTGAACGAAAGTTAGCAC ((((((....)))..))); Criterion met
GATCGCCGAAAGGCCATC (((.(((....))).))); Criterion met
GTCTGCGAAAGCACCGAC ((((((....)))..))); Criterion met
GATCACCCTGGTGATC ((((((....)))))); Criterion not met
GGACATGGAAACATGCCC ((.((((....)))).)); Criterion not met
GATCCCGATGGGGATC ((((((....)))))); Criterion not met
GCCGGGCGAAAGCCGCGC ((..(((....)))..)); Criterion not met
GCGTTTGGAAACGAACGC (((((.(....).))))); Criterion not met
GAGCACGAAAGTGCCCTC ((((((....)))..))); Criterion not met
GTGGTTGGAAACAGCTAC ((.(.((....)).).)); Criterion met
GACGCTGGAAACAACGTC ((((.((....)).)))); Criterion not met
GTTACCGAAAGGTGCAAC ((((((....)))..))); Criterion met
GATGTCGAAAGACATC ((((((....)))))); Criterion not met
CGCGACGGAAACGTGGCG (((.(((....))).))); Criterion not met
GCCAAGGGAAACTTTGGC (((((.(....).))))); Criterion not met
GATCTGCGGTCAGATC ((((((....)))))); Criterion not met
GTTACCGAAAGGTATAAC ((((((....)))..))); Criterion met
GCTCCAGGAAACTAGAGC ((((.((....)).)))); Criterion met
GGTAAGGCGAAAGCCACC (((..(((....)))))); Criterion not met
